target: human C5 protein (human, UniProt P01031 19-673; P01031 678-1676); assay: cell-based or functional assay
Positions of bridges follow the written chain, without caps; N, C: chain ends. Non-standard residues stand in square brackets, D forms with d. Primed or numbered codes have the meaning given here. mXylyl″ = bridging moiety between the two marked residues; Trp(7-aza) = N[C@@H](Cc1c[nH]c2ncccc12)C(=O)O; Phg = N[C@H](C(=O)O)c1ccccc1; Tle = CC(C)(C)[C@H](N)C(=O)O; Nva = CCC[C@H](N)C(=O)O
MEASURE NAME: Avg. IC50, human hemolysis assay (complete human sera)
Output should be the measured figure followed by the unit it is expressed in.

Record Avg. IC50, human hemolysis assay (complete human sera) per entry; entries follow.
1. CVERFCDGYWEYP ([mXylyl(1,6)]Ac-C-V-E-R-F-C-D-Tbg-Y-W-E-Y-P-NH2) [R3143]
2. Ac-CVERFCA[Tle]Y[Trp(7-aza)]EYP[Phg][Nva]-NH2 (linker 1-6 via mXylyl″) [R3157]
3. Ac-CAERFCD[Tle]Y[Trp(7-aza)]EYP[Phg]K-NH2 (linker 1-6 via mXylyl″) [R3161]

-- reply
1. 18.6 nM
2. 84.5 nM
3. 7 nM
